// provenance: PubChem BioAssay (NCI)

tested on: SNB-75 CNS; experiment: NCI-60 one-dose screen, 48 h (100 = growth as untreated, 0 = no growth, -100 = all killed); settings: 10 µM unless noted
Compounds without any hit were thinned out: in the full panel of roughly 83,000, 20% have a hit.
Label true (1) when growth >= 90%; otherwise false (0).

| compound | assigned_label |
| --- | --- |
| C=CCn1c(SCC(=O)c2ccc(OC)cc2)nnc1-c1ccc(OC)cc1 | true (1) |
| CCN1CCN(Cc2ccc(C(=O)Nc3nc4ccc(Oc5ccnc(C(=O)NC)c5)cc4s3)cc2C(F)(F)F)CC1 | false (0) |
| C=CCn1c(SCC(=O)Nc2cccc(C(=O)/C=C/c3cccc([N+](=O)[O-])c3)c2)nc2ccccc2c1=O | false (0) |

Ask: Does "C#C[C@]1(O)CC[C@H]2[C@@H]3CC=C4c5sc(Nc6cc(Cl)ccn6)nc5CC[C@]4(C)[C@H]3CC[C@@]21C" have a reported growth of at least 90%?
Result: false (0)

Ask: growth >= 90% for "C#C[C@]1(O)CC[C@H]2[C@@H]3CC=C4c5sc(C6CCOCC6)nc5CC[C@]4(C)[C@H]3CC[C@@]21C" ?
Result: false (0)

Ask: Determine whether measured growth meets or exceeds 90% for CC1(C)CC[C@]2(C(=O)O)CC[C@]3(C)C(=CCC4[C@@]5(C)C[C@@H](O)[C@@H]6OC(c7cccc([N+](=O)[O-])c7)OC[C@@]6(C)C5CC[C@]43C)C2C1 (stereo partly drawn)
Result: false (0)
